Target Under Test: Beta-secretase 1 (Homo sapiens)
Sequence (P56817 whole entry): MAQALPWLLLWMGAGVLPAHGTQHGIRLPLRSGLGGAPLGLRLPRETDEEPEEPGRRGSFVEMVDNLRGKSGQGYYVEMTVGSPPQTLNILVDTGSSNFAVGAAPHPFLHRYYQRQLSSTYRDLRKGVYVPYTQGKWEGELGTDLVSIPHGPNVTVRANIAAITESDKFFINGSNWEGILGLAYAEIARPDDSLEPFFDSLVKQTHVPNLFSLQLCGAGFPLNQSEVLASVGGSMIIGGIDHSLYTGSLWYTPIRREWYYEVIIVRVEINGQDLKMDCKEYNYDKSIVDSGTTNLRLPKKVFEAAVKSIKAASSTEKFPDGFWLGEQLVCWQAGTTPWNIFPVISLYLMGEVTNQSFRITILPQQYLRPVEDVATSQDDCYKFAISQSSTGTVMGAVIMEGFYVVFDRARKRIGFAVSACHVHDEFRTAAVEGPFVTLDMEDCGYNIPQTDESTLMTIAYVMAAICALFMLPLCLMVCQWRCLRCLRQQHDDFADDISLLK
Assay Remarks: Inhibition of recombinant human BACE1 at 2 uM by FRET analysis
Assay Endpoint: inhibition (%)

compound_smiles=C[C@@H](NC(=O)c1cc(C(=O)N[C@@H](Cc2ccccc2)[C@@H](O)C(=O)Nc2nccs2)cc(N(C)S(C)(=O)=O)c1)c1ccccc1 result_value=48
compound_smiles=C[C@@H](NC(=O)c1cc(C(=O)N[C@@H](Cc2ccccc2)[C@@H](O)C(=O)Nc2nnc(C(C)(C)C)s2)cc(N(C)S(C)(=O)=O)c1)c1ccccc1 result_value=48
compound_smiles=C[C@@H](NC(=O)c1cc(C(=O)N[C@@H](Cc2ccccc2)[C@H](O)C(=O)Nc2nncs2)cc(N(C)S(C)(=O)=O)c1)c1ccccc1 result_value=38
compound_smiles=C[C@@H](NC(=O)c1cc(C(=O)N[C@@H](Cc2ccccc2)[C@@H](O)C(=O)Nc2nncs2)cc(N(C)S(C)(=O)=O)c1)c1ccccc1 result_value=83

I. Cc1nnc(NC(=O)[C@@H](O)[C@H](Cc2ccccc2)NC(=O)c2cc(C(=O)N[C@H](C)c3ccccc3)cc(N(C)S(C)(=O)=O)c2)s1
II. C[C@@H](NC(=O)c1cc(C(=O)N[C@@H](Cc2ccccc2)[C@H](O)C(=O)Nc2nccs2)cc(N(C)S(C)(=O)=O)c1)c1ccccc1
III. C[C@@H](NC(=O)c1cc(C(=O)N[C@@H](Cc2ccccc2)[C@H](O)C(=O)Nc2nc3ccccc3s2)cc(N(C)S(C)(=O)=O)c1)c1ccccc1
IV. CCc1nnc(NC(=O)[C@H](O)[C@H](Cc2ccccc2)NC(=O)c2cc(C(=O)N[C@H](C)c3ccccc3)cc(N(C)S(C)(=O)=O)c2)s1
Arrange by inhibition, high to low. Answer by writing out the labels in the requested order.
IV, I, II, III
